Where these numbers come from: paper PMC4336329

- Target or system: human ether-à-go-go-related gene (hERG) potassium channel (human, UniProt Q12809);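 also: peak tail current of the secondary pulse compared with the same well before compound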
- Sequence (Q12809 whole entry, looked up): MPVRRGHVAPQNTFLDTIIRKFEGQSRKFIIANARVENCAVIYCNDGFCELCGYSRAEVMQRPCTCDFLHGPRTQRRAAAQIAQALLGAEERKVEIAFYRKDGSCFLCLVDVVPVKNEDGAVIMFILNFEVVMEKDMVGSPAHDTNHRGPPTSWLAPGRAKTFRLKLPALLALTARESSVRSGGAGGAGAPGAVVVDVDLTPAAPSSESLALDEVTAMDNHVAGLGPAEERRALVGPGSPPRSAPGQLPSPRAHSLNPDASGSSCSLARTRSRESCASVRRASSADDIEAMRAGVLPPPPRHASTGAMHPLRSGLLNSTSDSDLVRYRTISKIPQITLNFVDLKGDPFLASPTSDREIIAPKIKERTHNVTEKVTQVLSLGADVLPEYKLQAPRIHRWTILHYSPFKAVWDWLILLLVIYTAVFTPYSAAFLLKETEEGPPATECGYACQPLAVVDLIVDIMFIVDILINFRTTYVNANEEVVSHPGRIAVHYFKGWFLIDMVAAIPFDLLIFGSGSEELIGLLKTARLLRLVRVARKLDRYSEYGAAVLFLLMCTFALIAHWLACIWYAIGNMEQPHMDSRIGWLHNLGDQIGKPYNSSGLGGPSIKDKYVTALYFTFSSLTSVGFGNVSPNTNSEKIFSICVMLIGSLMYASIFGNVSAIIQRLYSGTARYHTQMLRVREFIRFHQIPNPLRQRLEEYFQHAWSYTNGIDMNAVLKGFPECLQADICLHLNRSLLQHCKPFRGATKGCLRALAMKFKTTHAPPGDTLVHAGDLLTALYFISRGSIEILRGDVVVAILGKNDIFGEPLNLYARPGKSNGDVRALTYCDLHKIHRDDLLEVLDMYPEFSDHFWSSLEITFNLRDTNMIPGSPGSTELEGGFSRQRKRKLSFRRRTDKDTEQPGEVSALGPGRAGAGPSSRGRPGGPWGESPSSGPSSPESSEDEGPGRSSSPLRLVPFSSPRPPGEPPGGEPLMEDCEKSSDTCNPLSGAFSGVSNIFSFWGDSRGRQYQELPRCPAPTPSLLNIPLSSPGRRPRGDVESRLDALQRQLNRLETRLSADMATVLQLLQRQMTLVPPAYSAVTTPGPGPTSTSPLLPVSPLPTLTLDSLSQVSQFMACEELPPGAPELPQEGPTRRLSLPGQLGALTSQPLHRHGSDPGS
- Assay summary: primary screen, population patch clamp on CHO cells stably expressing hERG; higher = less effect of the substance
Screen size: about 310,000 compounds; about 14,000 (4.5%) showed an effect of 50% or more. The effect is printed as a negative number. The entries come from a sample that favours strong results as a whole.
Observation type: hERG current change (%, negative = inhibition) at 10uM (%)
# unit: % | format: bare number

Some molecules with recorded hERG current change (%, negative = inhibition) at 10uM:
C=C(C)c1cccc(C(C)(C)NC(=O)N2CCN(CC(N)=O)CC2)c1
11.3
COc1ccc(CC(=O)N2CCc3cc(OC)c(OC)cc3C2O)cc1OC (centres unmarked)
8.05
Cc1cc(C)cc(NC(=O)N2CCN(C/C=C/c3ccccc3)CC2)c1
-69
CCN1CCCC1CNC(=O)c1ccc2c(c1)N(Cc1cccc(Cl)c1)C(=O)c1ccccc1S2(=O)=O (centres unmarked)
-39.7
COCCNCC(=O)N1CCCCCC1.O=C(O)C(=O)O
-24.6
Cc1ccc(Cl)c2sc(N3CCN(C(=O)c4ccco4)CC3)nc12
-10.3

Prompt line: Provide one value: measured hERG current change (%, negative = inhibition) at 10uM of C=C(C)c1cccc(C(C)(C)NC(=O)N2CCN(C/C=C/c3ccccc3)CC2)c1
Response line: -62.9

Prompt line: Provide one value: measured hERG current change (%, negative = inhibition) at 10uM of OCCNc1c2ccccc2nc2c(F)c(F)c(F)c(F)c12
Response line: 14.6

Prompt line: Provide one value: measured hERG current change (%, negative = inhibition) at 10uM of O=C(CSc1nc2cc(Cl)ccc2s1)c1ccco1
Response line: 2.2

* * *

- Target or system: human ether-à-go-go-related gene (hERG) potassium channel (human, UniProt Q12809);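 also: peak tail current of the secondary pulse compared with the same well before compound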
- Assay summary: primary screen, population patch clamp on CHO cells stably expressing hERG; higher = less effect of the substance
The whole screen tested about 310,000 compounds, of which about 14,000 (4.5%) showed an effect of 50% or more. Effects have a minus sign here. The sample as a whole holds a higher share of strong results than the screen did.
hERG current change (%, negative = inhibition) at 10uM listing for selected molecules.
# unit: % | format: bare number

CC(=O)N1CCN(CCN=Cc2c(O)n(-c3ccc(F)cc3)c(=S)[nH]c2=O)CC1
22.1

Prompt line: Provide one value: measured hERG current change (%, negative = inhibition) at 10uM of CN(C)CCN(C(=O)CCS(=O)(=O)c1ccccc1)c1nc2c(F)cccc2s1
Response line: 13.6

Prompt line: Provide one value: measured hERG current change (%, negative = inhibition) at 10uM of CN=C(Nc1cccnc1)c1ccccc1
Response line: 15.6

Prompt line: Provide one value: measured hERG current change (%, negative = inhibition) at 10uM of O=S(=O)(c1ccccc1)N(CC(O)CN1CCCC1)c1ccccc1 (centres unmarked)
Response line: -19

Prompt line: Provide one value: measured hERG current change (%, negative = inhibition) at 10uM of COc1ccc(CC(=O)Nc2ccc(-c3ccc4nnc(C)n4n3)cc2)cc1OC
Response line: 2.72

Prompt line: Provide one value: measured hERG current change (%, negative = inhibition) at 10uM of O=C(N/N=C/c1ccc[nH]1)c1ccccc1OCc1ccccc1Cl
Response line: -25.5

Prompt line: Provide one value: measured hERG current change (%, negative = inhibition) at 10uM of Cc1nc2ccc(NC(=O)Cc3cccs3)cc2s1
Response line: 11

Prompt line: Provide one value: measured hERG current change (%, negative = inhibition) at 10uM of CC1(C)CC(=O)C(C=NCCN2CCN(C(=O)c3ccc(F)cc3)CC2)=C(O)C1
Response line: -21.1
